experiment: The drug is tested on Bacteroides fragilis strain: HMW610 for biotransformation. The drug concentrations were measured before and after a 12-h incubation by liquid-chromatography-coupled mass spectrometry (LC–MS); conditions: 2 µM
quantity.measured: Bacterial Biotransformation

compound="O=C1N=C([O-])NC1(c1ccccc1)c1ccccc1.[Na+] [PHENYTOIN SODIUM]" quantity_measured="Bacterial Biotransformation" result="Compound NOT metabolized"
compound=O=C(CCCN1CCC(O)(c2ccc(Cl)cc2)CC1)c1ccc(F)cc1 quantity_measured="Bacterial Biotransformation" result="Compound NOT metabolized"
compound="CCC(C)n1ncn(-c2ccc(N3CCN(c4ccc(OCC5COC(Cn6cncn6)(c6ccc(Cl)cc6Cl)O5)cc4)CC3)cc2)c1=O (centres undefined)" quantity_measured="Bacterial Biotransformation" result="Compound NOT metabolized"
